assayed.system: Glycine receptor (alpha-1/beta) (Homo sapiens, UniProt P23415+P48167)
Sequence (P23415 whole entry): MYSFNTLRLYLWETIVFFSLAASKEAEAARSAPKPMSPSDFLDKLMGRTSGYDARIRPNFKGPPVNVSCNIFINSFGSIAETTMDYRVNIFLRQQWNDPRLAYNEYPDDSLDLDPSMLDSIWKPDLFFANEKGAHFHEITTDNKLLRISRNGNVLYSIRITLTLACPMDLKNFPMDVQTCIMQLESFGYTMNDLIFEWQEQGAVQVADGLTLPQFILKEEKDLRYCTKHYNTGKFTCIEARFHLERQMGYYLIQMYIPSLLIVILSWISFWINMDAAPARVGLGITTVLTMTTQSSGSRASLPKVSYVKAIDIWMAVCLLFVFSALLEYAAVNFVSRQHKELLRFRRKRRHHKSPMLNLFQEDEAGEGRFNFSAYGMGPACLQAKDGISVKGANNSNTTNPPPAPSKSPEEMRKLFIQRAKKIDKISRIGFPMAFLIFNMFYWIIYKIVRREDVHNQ
Sequence (P48167 whole entry): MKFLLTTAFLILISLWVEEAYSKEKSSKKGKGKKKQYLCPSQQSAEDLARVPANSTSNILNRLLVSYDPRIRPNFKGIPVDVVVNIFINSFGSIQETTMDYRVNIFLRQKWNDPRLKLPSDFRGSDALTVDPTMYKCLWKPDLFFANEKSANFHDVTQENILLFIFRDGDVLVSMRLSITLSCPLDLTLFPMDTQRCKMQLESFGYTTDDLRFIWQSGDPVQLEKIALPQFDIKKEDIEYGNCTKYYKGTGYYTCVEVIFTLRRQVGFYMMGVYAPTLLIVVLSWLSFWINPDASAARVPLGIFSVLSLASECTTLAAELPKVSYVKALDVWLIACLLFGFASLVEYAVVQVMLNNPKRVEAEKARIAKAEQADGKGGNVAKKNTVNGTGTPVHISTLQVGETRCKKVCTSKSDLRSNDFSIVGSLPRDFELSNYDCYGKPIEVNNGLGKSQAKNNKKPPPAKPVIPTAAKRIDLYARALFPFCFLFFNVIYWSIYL
experimental.protocol: Antagonist activity at human glycine receptor subunit alpha-1beta expressed in human tsA201 cells assessed as reduction in glycine-induced response incubated for 30 mins by fluorescence-based FLIPR membrane potential blue assay
Type: cell-based
condition.notes: tsa201; read-out: IC50
property.name: IC50 (nM)
Answer format: numeric, nM implied, no suffix.

Given item O=C1C[C@@H]2OCC=C3CN4CC[C@]56c7ccccc7N1[C@H]5[C@H]2[C@H]3C[C@H]46 [STRYCHNINE] , the value recorded as its IC50 is 510

* * *

assayed.system: Glycine receptor subunit alpha-1 (Homo sapiens, UniProt P23415)
Sequence (P23415 whole entry): as the sequence (P23415 whole entry) above
experimental.protocol: Antagonist activity at human glycine receptor subunit alpha-1 assessed as inhibition of glycine-induced current measured at the later state of compound application by patch-clamp assay
Returns: string. Value is Fulfilled if measured IC50 is below 70 nM, and Not fulfilled if it is greater than or equal to it.

Before answering, review these 3 worked examples.
O=C(CCOCCOCCOCCOCCOCCOCCOCCOCCOCCOCCOCCOCCC(=O)NCCCCCCCCCCC(=O)Nc1ccc2c(c1)[C@@]13CCN4CC5=CCO[C@H]6CC(=O)N2[C@H]1[C@H]6[C@H]5C[C@H]43)NCCCCCCCCCCC(=O)Nc1ccc2c(c1)[C@@]13CCN4CC5=CCO[C@H]6CC(=O)N2[C@H]1[C@H]6[C@H]5C[C@H]43 | Fulfilled
COCCOCCOCCOCCOCCOCCOCCOCCOCCOCCOCCOCCC(=O)NCCCCCCCCCCC(=O)Nc1ccc2c(c1)[C@@]13CCN4CC5=CCO[C@H]6CC(=O)N2[C@H]1[C@H]6[C@H]5C[C@H]43 | Not fulfilled
COCCOCCOCCOCCOCCOCCOCCOCCOCCOCCOCCOCCC(=O)NCCCCC(=O)Nc1ccc2c(c1)[C@@]13CCN4CC5=CCO[C@H]6CC(=O)N2[C@H]1[C@H]6[C@H]5C[C@H]43 | Not fulfilled

# input Given `O=C(CCOCCOCCOCCOCCOCCOCCOCCOCCOCCOCCOCCOCCC(=O)NCCCCC(=O)Nc1ccc2c(c1)[C@@]13CCN4CC5=CCO[C@H]6CC(=O)N2[C@H]1[C@H]6[C@H]5C[C@H]43)NCCCCC(=O)Nc1ccc2c(c1)[C@@]13CCN4CC5=CCO[C@H]6CC(=O)N2[C@H]1[C@H]6[C@H]5C[C@H]43` , is recorded IC50 strictly lower than 70 nM?
# output Fulfilled

# input Given `O=C1C[C@@H]2OCC=C3CN4CC[C@]56c7ccccc7N1[C@H]5[C@H]2[C@H]3C[C@H]46` , is recorded IC50 strictly lower than 70 nM?
# output Fulfilled

* * *

assayed.system: Glycine receptor (alpha-1/beta) (Homo sapiens, UniProt P23415+P48167)
experimental.protocol: Antagonist activity at human glycine receptor subunit alpha-1beta expressed in HEK293 cells assessed as reduction in glycine-induced currents by whole-cell patch-clamp assay
Assay type: cell-based
Below, each entry is listed with its recorded pIC50.
FYI, pIC50 means -log10 of a concentration in mol per litre.

Take a look at these entries with their results.
O=C1C[C@@H]2OCC=C3CN4CC[C@]56c7ccccc7N1[C@H]5[C@H]2[C@H]3C[C@H]46 | 7.22
O=C(CCCCCCCCCCC(=O)Nc1ccc2c(c1)[C@@]13CCN4CC5=CCO[C@H]6CC(=O)N2[C@H]1[C@H]6[C@H]5C[C@H]43)Nc1ccc2c(c1)[C@@]13CCN4CC5=CCO[C@H]6CC(=O)N2[C@H]1[C@H]6[C@H]5C[C@H]43 | 6.10
O=C(CCCCCCCCC(=O)Nc1ccc2c(c1)[C@@]13CCN4CC5=CCO[C@H]6CC(=O)N2[C@H]1[C@H]6[C@H]5C[C@H]43)Nc1ccc2c(c1)[C@@]13CCN4CC5=CCO[C@H]6CC(=O)N2[C@H]1[C@H]6[C@H]5C[C@H]43 | 5.72

As a next step, examine the compound that follows.
Given item `O=C(CCCCCCC(=O)Nc1ccc2c(c1)[C@@]13CCN4CC5=CCO[C@H]6CC(=O)N2[C@H]1[C@H]6[C@H]5C[C@H]43)Nc1ccc2c(c1)[C@@]13CCN4CC5=CCO[C@H]6CC(=O)N2[C@H]1[C@H]6[C@H]5C[C@H]43` , the value recorded as its pIC50 is 5.89

* * *

Below, each entry is listed with its recorded log10 IC50.
assayed.system: Glycine receptor (alpha-1/beta) (Homo sapiens, UniProt P23415+P48167)
experimental.protocol: Antagonist activity at human glycine receptor subunit alpha-1beta expressed in human tsA201 cells assessed as reduction in glycine-induced response incubated for 30 mins by fluorescence-based FLIPR membrane potential blue assay
Type: cell-based
condition.notes: read-out: IC50
Reminder: these figures are log10 of reported IC50, in µM before transformation.

O=C(CCCCCCCCCCC(=O)Nc1ccc2c(c1)[C@@]13CCN4CC5=CCO[C@H]6CC(=O)N2[C@H]1[C@H]6[C@H]5C[C@H]43)Nc1ccc2c(c1)[C@@]13CCN4CC5=CCO[C@H]6CC(=O)N2[C@H]1[C@H]6[C@H]5C[C@H]43 | 0.26
CCCCCCCC(=O)Nc1ccc2c(c1)[C@@]13CCN4CC5=CCO[C@H]6CC(=O)N2[C@H]1[C@H]6[C@H]5C[C@H]43 | -0.17
CCCCCCCC(=O)NCCCCCCCCCCC(=O)Nc1ccc2c(c1)[C@@]13CCN4CC5=CCO[C@H]6CC(=O)N2[C@H]1[C@H]6[C@H]5C[C@H]43 | 0.76
O=C(CCCCCC(=O)NCC(=O)Nc1ccc2c(c1)[C@@]13CCN4CC5=CCO[C@H]6CC(=O)N2[C@H]1[C@H]6[C@H]5C[C@H]43)NCC(=O)Nc1ccc2c(c1)[C@@]13CCN4CC5=CCO[C@H]6CC(=O)N2[C@H]1[C@H]6[C@H]5C[C@H]43 | 0.34
O=C(CCCCCCCCCCC(=O)NCCCCCCCCCCC(=O)Nc1ccc2c(c1)[C@@]13CCN4CC5=CCO[C@H]6CC(=O)N2[C@H]1[C@H]6[C@H]5C[C@H]43)NCCCCCCCCCCC(=O)Nc1ccc2c(c1)[C@@]13CCN4CC5=CCO[C@H]6CC(=O)N2[C@H]1[C@H]6[C@H]5C[C@H]43 | 1.70

Given item `O=C(CCCCC(=O)Nc1ccc2c(c1)[C@@]13CCN4CC5=CCO[C@H]6CC(=O)N2[C@H]1[C@H]6[C@H]5C[C@H]43)Nc1ccc2c(c1)[C@@]13CCN4CC5=CCO[C@H]6CC(=O)N2[C@H]1[C@H]6[C@H]5C[C@H]43` , the value recorded as its log10 IC50 is 1.00

Given item `O=C(CCCCCCCCCCCCCCC(=O)NCCCCC(=O)Nc1ccc2c(c1)[C@@]13CCN4CC5=CCO[C@H]6CC(=O)N2[C@H]1[C@H]6[C@H]5C[C@H]43)NCCCCC(=O)Nc1ccc2c(c1)[C@@]13CCN4CC5=CCO[C@H]6CC(=O)N2[C@H]1[C@H]6[C@H]5C[C@H]43` , the value recorded as its log10 IC50 is 0.61

* * *

assayed.system: Glycine receptor subunit alpha-1 (Homo sapiens, UniProt P23415)
experimental.protocol: Antagonist activity at human glycine receptor subunit alpha-1 expressed in human tsA201 cells assessed as reduction in glycine-induced response incubated for 30 mins by fluorescence-based FLIPR membrane potential blue assay
Type: cell-based
condition.notes: read-out: IC50
property.name: pIC50
FYI, pIC50 means -log10 of a concentration in mol per litre.

Given item `O=C(CCCCCCC(=O)NCC(=O)Nc1ccc2c(c1)[C@@]13CCN4CC5=CCO[C@H]6CC(=O)N2[C@H]1[C@H]6[C@H]5C[C@H]43)NCC(=O)Nc1ccc2c(c1)[C@@]13CCN4CC5=CCO[C@H]6CC(=O)N2[C@H]1[C@H]6[C@H]5C[C@H]43` , the value recorded as its pIC50 is 5.55

Given item `CCCCCCCC(=O)NCCCCCCCCCCC(=O)Nc1ccc2c(c1)[C@@]13CCN4CC5=CCO[C@H]6CC(=O)N2[C@H]1[C@H]6[C@H]5C[C@H]43` , the value recorded as its pIC50 is 5.00

Given item `O=C(CCC(=O)Nc1ccc2c(c1)[C@@]13CCN4CC5=CCO[C@H]6CC(=O)N2[C@H]1[C@H]6[C@H]5C[C@H]43)Nc1ccc2c(c1)[C@@]13CCN4CC5=CCO[C@H]6CC(=O)N2[C@H]1[C@H]6[C@H]5C[C@H]43` , the value recorded as its pIC50 is 5.00

Given item `O=C(CCCCCCCCCCC(=O)NCCCCCCCCCCC(=O)Nc1ccc2c(c1)[C@@]13CCN4CC5=CCO[C@H]6CC(=O)N2[C@H]1[C@H]6[C@H]5C[C@H]43)NCCCCCCCCCCC(=O)Nc1ccc2c(c1)[C@@]13CCN4CC5=CCO[C@H]6CC(=O)N2[C@H]1[C@H]6[C@H]5C[C@H]43` , the value recorded as its pIC50 is 4.52

Given item `CCCCCCCC(=O)NCC(=O)Nc1ccc2c(c1)[C@@]13CCN4CC5=CCO[C@H]6CC(=O)N2[C@H]1[C@H]6[C@H]5C[C@H]43` , the value recorded as its pIC50 is 6.11
